tested on: HCT-15
measurement_name: GI50

Recorded results for 2 molecules are shown here.
molecule | reported_result
Cc1cc(N(CCC#N)CCC#N)ccc1/C=C(/NC(=O)/C=C/c1ccccc1)C(N)=O | > 100 µM
CCOP(=O)(OCC)C1CCCCOC1=O (stereo not drawn) | > 100 µM

Give recorded GI50. "Cn1cnc2nc(Cl)nc(NC(C)(C)C(C)(C)O)c21" > 100 µM

---

system: EKVX; test: NCI tumour cell line growth inhibition, 48 h
Activity calls are given as the source filed them. Cut-off read from the data, not from the text of the source: active = GI50 up to about 1.1 µM and inactive = higher.
measurement_name: GI50

Recorded results for 4 compounds are shown here.
compound | tested_system | GI50
CNC(C#N)c1ccc(OC)cc1 (stereo unspecified) | EKVX | > 100 µM (inactive)
O=C1CC(C(OCc2ccccc2)C(OCc2ccccc2)C(COCc2ccccc2)OCc2ccccc2)CC(=O)N1 (stereo unspecified) | EKVX | > 100 µM (inactive)
CC1=NN(C(=O)Nc2ccc(Cl)cc2)C(=O)C2CCC(=O)N12 (stereo unspecified) | EKVX | > 100 µM (inactive)
OCC(O)C(O)C(O)c1nn(-c2ccccc2)c2nc3cc(Cl)c(Cl)cc3nc12 (stereo unspecified) | EKVX | 51.6 µM (inactive)

Give recorded GI50. "CC1=C(C#N)S(=O)(=O)c2c(oc(C)c2C)N1" > 100 µM (inactive)
